tested on: RFL-6; assay: Ratio of inhibitory constant against rod phosphodiesterase 6 and phosphodiesterase 5 in rat fetal lung fibroblast (RFL-6) cells; format: cell-based
Readout Kind: Selectivity

compound="Cc1ncc(-c2cnc(N3Cc4c(nc5ccccc5c4O)C3c3ccc4c(c3)CCO4)nc2)n1Cc1ccccc1 (configuration not stated)" target_under_test=RFL-6 recorded_result=366
compound="Oc1c2c(nc3ccccc13)C(c1ccc3c(c1)CCO3)N(c1ncc(Br)cn1)C2 (configuration not stated)" target_under_test=RFL-6 recorded_result=35.7
compound="Oc1c2c(nc3ccccc13)C(c1ccc3c(c1)OCO3)N(c1ccc(-n3ccnc3)cc1)C2 (configuration not stated)" target_under_test=RFL-6 recorded_result=20.1
compound=Oc1c2c(nc3ccccc13)[C@@H](c1ccc3c(c1)CCO3)N(c1ncc(-c3ccccn3)cn1)C2 target_under_test=RFL-6 recorded_result=99
compound="Oc1c2c(nc3ccccc13)C(c1ccc3c(c1)OCO3)N(c1ncc(-c3cccnc3)cn1)C2 (configuration not stated)" target_under_test=RFL-6 recorded_result=9.3
compound="Oc1c2c(nc3ccccc13)C(c1ccc3c(c1)CCO3)N(c1ccc(-n3ccnc3)cc1)C2 (configuration not stated)" target_under_test=RFL-6 recorded_result=499
compound="Oc1c2c(nc3ccccc13)C(c1ccc3c(c1)CCO3)N(c1ncccn1)C2 (configuration not stated)" target_under_test=RFL-6 recorded_result=755
